Molecular target: Menin-MLL (Homo sapiens)
Construct: His-Menin (M1-L615 end); purchased BIORTUS BP9210
Sequence (O00255 1-615 isoform O00255-1): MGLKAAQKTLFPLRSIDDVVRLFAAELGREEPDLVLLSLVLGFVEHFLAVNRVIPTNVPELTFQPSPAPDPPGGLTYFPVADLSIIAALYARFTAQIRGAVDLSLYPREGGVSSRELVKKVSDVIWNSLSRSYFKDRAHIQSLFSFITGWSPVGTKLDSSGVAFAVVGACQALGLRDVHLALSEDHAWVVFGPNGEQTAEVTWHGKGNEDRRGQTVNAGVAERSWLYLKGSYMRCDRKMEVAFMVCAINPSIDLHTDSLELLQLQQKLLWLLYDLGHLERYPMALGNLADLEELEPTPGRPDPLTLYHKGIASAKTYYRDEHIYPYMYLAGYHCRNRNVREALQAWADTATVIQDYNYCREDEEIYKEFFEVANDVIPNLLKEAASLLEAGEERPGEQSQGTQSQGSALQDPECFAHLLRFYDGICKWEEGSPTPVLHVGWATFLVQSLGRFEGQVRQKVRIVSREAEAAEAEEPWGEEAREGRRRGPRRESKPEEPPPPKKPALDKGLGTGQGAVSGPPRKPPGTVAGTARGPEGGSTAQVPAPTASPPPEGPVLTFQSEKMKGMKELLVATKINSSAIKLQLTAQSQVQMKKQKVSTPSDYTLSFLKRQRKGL
Assay: Inhibitory activity against Menin-MLL binding (fluorescence polarization)
Conditions: fluorescence polarization; 150 nM His-Menin, 15 nM FITC-MLL; 25°C for 60 min; read-out: Menin-MLL IC50
Experimental: • His-Menin (M1-L615 end), purchased from BIORTUS, Catalog Number: BP9210; and • FITC-MLL4-43, purchased from GenScript, Catalog Number: C491HFF190-3/PE1324. In a 10 µL reaction solution (20 mM HEPES, pH 7.5, 50 mM NaCl, 1 mM DTT, 0.01% BSA) containing any compound from the examples, 150 nM His-Menin was added to a 384-well plate (Corning, Model: 4514). […] Changes in fluorescence polarization were measured using a plate reader (PerkinElmer, Envision 2104). […]
OUTCOME_MEASURE: IC50 (nM)

{"MOLECULE": "CCN(C(=O)c1cc(F)ccc1-c1cc(N2CCC(NCc3ccc(-c4cc(OC)c(OC)nn4)cc3)CC2)cn2cncc12)C(C)C", "UNIT_OF_MEASURE": "nM", "MEAS_VALUE": 43.5}
{"MOLECULE": "COCCN(C)CCCC(C(C)C)N1CC(c2cc(-c3ccc(F)cc3C(=O)N(CC(F)F)C(C)C)c3cnn(C)c3c2)C1 (stereo not shown)", "UNIT_OF_MEASURE": "nM", "MEAS_VALUE": 22}

P. CC(=O)N1CC2CCC(C1)N2CCC[C@H](C(C)C)N1CC(c2cc(-c3ccc(F)cc3C(=O)N3CCOC[C@H]3C)c3cnc(C)n3c2)C1
Q. Cc1nc(F)c2c(-c3ccc(F)cc3C(=O)N3CCOC[C@H]3C)cc(C3CN([C@H](CO[C@H]4CCCN(C)C4)C(C)C)C3)cn12
Request: From the items above, decide which of P and Q has the lower IC50 reading. Lab note: record the label of whichever item you select.
Response: Q

A. CCC(=O)N1CCC([C@@H](C)N2CC(c3cc(-c4ccc(F)cc4C(=O)N4CCOC[C@H]4C)c4cnc(C)n4c3)C2)CC1
B. Cc1nc(F)c2c(-c3ccc(F)cc3C(=O)N3CCOC[C@H]3C)cc(C3CN([C@@H](CN4CCN(C(=O)OC(C)(C)C)CC4)C(C)C)C3)cn12
C. Cc1nc(F)c2c(-c3ccc(F)cc3C(=O)N3CCOC[C@H]3C)cc(C3CN([C@@H](CN4CCNCC4)C(C)C)C3)cn12
D. Cc1ncc2c(-c3ccc(F)cc3C(=O)N3CCOC[C@H]3C)cc(C3CN([C@@H](CCCN4CCN(C)CC4)C(C)C)C3)cn12
Request: Arrange these molecules by their IC50, starting with the largest number. # format: label list in the order the request specifies
Response: B, A, D, C

---

Molecular target: Menin-MLL (Homo sapiens)
Construct: His-Menin (M1-L615 end); purchased BIORTUS BP9210
Assay: Inhibitory activity against Menin-MLL binding (fluorescence polarization)
Conditions: fluorescence polarization; 150 nM His-Menin, 15 nM FITC-MLL; 25°C for 60 min; read-out: Menin-MLL IC50
pIC50: −log10 of the molar value.
OUTCOME_MEASURE: pIC50

{"COMPOUND": "CCN(C(=O)c1cc(F)ccc1-c1cc(N2CCN(C(=O)[C@@H]3C[C@H](OC)CN3)CC2)cn2c(C)nc(Cl)c12)C(C)C", "TESTED_ON": "Menin-MLL (Homo sapiens)", "OUTCOME_MEASURE": "pIC50", "MEAS_VALUE": 7.02}
{"COMPOUND": "CCN(C(=O)c1cc(F)ccc1-c1cc(C2CCN(C[C@H]3CC[C@H](N4CCOC4=O)CC3)C2)nc2c1cnn2C)C(C)C (stereo partly shown)", "TESTED_ON": "Menin-MLL (Homo sapiens)", "OUTCOME_MEASURE": "pIC50", "MEAS_VALUE": 6.93}
{"COMPOUND": "CC(=O)N1CCN(CCC[C@H](C(C)C)N2CC(c3cc(-c4ccc(F)cc4C(=O)N4CCOC[C@H]4C)c4c(F)nc(C)n4c3)C2)CC1(C)C", "TESTED_ON": "Menin-MLL (Homo sapiens)", "OUTCOME_MEASURE": "pIC50", "MEAS_VALUE": 7.89}
{"COMPOUND": "CCN(C(=O)c1cc(F)ccc1-c1cc(C2CCN(C[C@H]3CC[C@H](NC(C)=O)CC3)C2)cn2cncc12)C(C)C (stereo partly shown)", "TESTED_ON": "Menin-MLL (Homo sapiens)", "OUTCOME_MEASURE": "pIC50", "MEAS_VALUE": 7.02}
{"COMPOUND": "CCN(C(=O)c1cc(F)ccc1-c1cc(C2CN([C@H](CCCN3CCN(C(C)=O)CC3)C(C)C)C2)cn2c(C)ncc12)C(C)C", "TESTED_ON": "Menin-MLL (Homo sapiens)", "OUTCOME_MEASURE": "pIC50", "MEAS_VALUE": 8.07}

I. CNC(=O)N1CCC(CN2CC(c3cc(-c4ccc(F)cc4C(=O)N4CCOC[C@H]4C)c4cnn(C)c4c3)C2)CC1
II. Cc1ncc2c(-c3ccc(F)cc3C(=O)N(C)C(C)C)cc(C3CN(C(CCCN4CCN(C)CC4)C(C)C)C3)cn12 (stereo not shown)
III. CCS(=O)(=O)N[C@@H]1CC[C@@H](CN2CC[C@@H](c3cc(-c4ccc(F)cc4C(=O)N(CC(F)F)C(C)C)c4cnc(C)n4c3)C2)OC1
Request: Ascending by pIC50, please: list the compounds accordingly. # the answer lists labels in the order requested
Response: I, III, II

---

Target: Menin-MLL (Homo sapiens)
Construct: His-Menin (M1-L615 end); purchased BIORTUS BP9210
Assay: Inhibitory activity against Menin-MLL binding (fluorescence polarization)
Settings: fluorescence polarization; 150 nM His-Menin, 15 nM FITC-MLL; 25°C for 60 min; read-out: Menin-MLL IC50
OUTCOME_MEASURE: IC50 (nM)

I. CCN(C(=O)c1cc(F)ccc1-c1cc(C2CN([C@@H](CCCN3CCN(C)CC3)C(C)C)C2)cn2c(C)nc(F)c12)C(C)C
II. CCN(C(=O)c1cc(F)ccc1-c1cc(N2CCN(C(=O)[C@H]3CCCN3)CC2)cn2c(C)ncc12)C(C)C
III. COC1CCN(CCC[C@H](C(C)C)N2CC(c3cc(-c4ccc(F)cc4C(=O)N4CCOC[C@H]4C)c4cnn(C)c4c3)C2)CC1
Request: Task field, ranking: reported IC50, descending order. Use the labels to give the requested order.
Response: II, I, III
(II: 153 nM, I: 32 nM, III: 13.5 nM)

1. CCN(C(=O)c1cc(F)ccc1-c1cc(C2CN([C@H](C)C3CCN(C(=O)NC)CC3)C2)cn2c(C)nc(F)c12)C(C)C
2. CCN(C(=O)c1cc(F)ccc1-c1cc(C2CN(C(CCN3CCN(CCO)CC3)C(C)C)C2)cn2c(C)ncc12)C(C)C (stereo not shown)
Request: Task for the reader: decide whether 1 or 2 has the larger IC50. Lab note: record the label of whichever item you select.
Response: 1
(1: 20 nM, 2: 14 nM)

a. Cc1ncc2c(-c3ccc(F)cc3C(=O)N(CC(F)F)C(C)C)cc(N3CCN(C(=O)[C@@H]4CCCN4)CC3)cn12
b. CC(=O)N1CCC(CN2CC(Cc3cc(-c4ccc(F)cc4C(=O)N(CC(F)F)C(C)C)c4cncc(C)n34)C2)CC1
Request: Please indicate which has the smaller reported IC50: a , or b . // caller expects the label of the chosen entry
Response: b
